# credit: ChEMBL document CHEMBL4699438

molecular target: Alpha-synuclein (Homo sapiens); test: Binding affinity to alpha-synuclein (unknown origin) expressed in Escherichia coli BL21(DE3) by circular dichroism analysis
recorded.endpoint: Kd (nM)
The figure you give is taken to be in nM; do not add the unit.

QUERY: Kd lookup needed for CO/N=C(\C(=O)N[C@@H]1C(=O)N2C(C(=O)O)=C(CSc3nc(=O)c(=O)[nH]n3C)CS[C@H]12)c1csc(N)n1 [CEFTRIAXONE] , thanks.
RESULT: 530

---

molecular target: Alpha-synuclein (Homo sapiens, UniProt P37840); assay: Inhibition of human alpha-synuclein aggregation expressed in Escherichia coli BL21(DE3) cells assessed as percent of un-inhibition measured at 16 hrs by thioflavin T based fluorescence assay relative to control; design: concentration or dose not given beside the values
recorded.endpoint: Remaining aggregation (% of control)

Here are 3 molecules together with their reported answers.
CC[C@H](C)[C@H](NC(=O)[C@H](Cc1ccc(O)cc1)NC(=O)[C@H](CCCCN)NC(=O)CNC(=O)[C@H]1CCCN1C(=O)[C@@H](NC(=O)[C@H](Cc1ccc(O)cc1)NC(=O)[C@@H](NC(=O)[C@@H](NC(=O)[C@H](CC(C)C)NC(=O)[C@H](CCCCN)NC(=O)[C@@H](N)CCCCN)[C@@H](C)O)C(C)C)[C@@H](C)CC)C(=O)N[C@H](C(=O)N[C@H](C(=O)N[C@@H](CO)C(=O)N[C@@H](C)C(=O)O)C(C)C)[C@@H](C)O :: 18%
CCC(=O)N[C@@H](Cc1c[nH]c2ccccc12)C(=O)N[C@H](C(=O)N1CCC[C@@H]1C(=O)NCC(=O)N[C@@H](CCCCN)C(=O)N[C@@H](Cc1c[nH]c2ccccc12)C(=O)N[C@H](C(=O)NCC(N)=O)[C@@H](C)O)[C@@H](C)CC :: 69%
CC[C@H](C)[C@H](NC(=O)[C@H](Cc1c[nH]c2ccccc12)NC(=O)[C@H](CCCCN)NC(=O)CNC(=O)[C@H]1CCCN1C(=O)[C@@H](NC(=O)[C@H](Cc1c[nH]c2ccccc12)NC(=O)[C@@H](NC(=O)[C@@H](NC(=O)[C@H](CC(C)C)NC(=O)[C@H](CCCCN)NC(=O)[C@@H](N)CCCCN)[C@@H](C)O)C(C)C)[C@@H](C)CC)C(=O)N[C@H](C(=O)N[C@H](C(=O)N[C@@H](CO)C(=O)N[C@@H](C)C(=O)O)C(C)C)[C@@H](C)O :: 19%

Then this molecule:
QUERY: Sample CC[C@H](C)[C@H](NC(=O)[C@H](CO)NC(=O)[C@H](Cc1c[nH]c2ccccc12)NC(=O)[C@@H](NC(=O)[C@H](CC(C)C)NC(=O)[C@H](CCCCN)NC(=O)[C@@H](N)CCCCN)[C@@H](C)O)C(=O)N1CCC[C@@H]1C(=O)NCC(=O)N[C@@H](CCCCN)C(=O)N[C@@H](CCCCN)C(=O)N[C@@H](Cc1c[nH]c2ccccc12)C(=O)N[C@H](C(=O)N[C@H](C(=O)N[C@@H](CO)C(=O)N[C@@H](C)C(=O)O)C(C)C)[C@@H](C)O — what was its Remaining aggregation (% of control)?
RESULT: 20%
